target: TXA2 synthetase (Oryctolagus cuniculus, UniProt G1TAZ9); construct: The platelet microsome fraction was separated from rabbit and from human blood; test: Inhibition of Thromboxane A2 Synthetase (rabbit platelet microsomes); conditions: 0.1 mM [14C] arachidonic acid, 1 minute, 22° C., compounds as hydrochloride except No. 40 (free base)
Sequence (G1TAZ9 1-530): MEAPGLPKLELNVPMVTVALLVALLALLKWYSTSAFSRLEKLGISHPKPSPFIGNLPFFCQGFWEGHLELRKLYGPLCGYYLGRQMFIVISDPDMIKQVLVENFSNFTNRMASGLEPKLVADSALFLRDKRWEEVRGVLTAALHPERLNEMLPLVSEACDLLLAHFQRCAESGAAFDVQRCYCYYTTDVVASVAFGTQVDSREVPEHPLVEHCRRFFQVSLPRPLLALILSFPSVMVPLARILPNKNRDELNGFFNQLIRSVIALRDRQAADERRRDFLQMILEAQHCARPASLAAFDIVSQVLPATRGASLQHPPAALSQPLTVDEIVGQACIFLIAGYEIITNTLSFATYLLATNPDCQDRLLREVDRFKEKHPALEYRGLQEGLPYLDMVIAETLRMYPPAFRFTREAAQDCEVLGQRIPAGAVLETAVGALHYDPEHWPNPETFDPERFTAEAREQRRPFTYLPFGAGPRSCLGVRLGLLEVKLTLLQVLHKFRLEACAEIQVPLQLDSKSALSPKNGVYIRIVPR
pIC50: −log10 of the molar value. Structures can show the parent of a compound that is named as a salt.
Overview of recorded pIC50 for various compounds
property_measured: pIC50

> print(dat)
                                   compound  measured.value
1  COc1ccc(C(Cn2ccnc2)Sc2ccc(C(=O)O)cc2)c(OC)c1 (stereo not drawn) [Compound 74, hydrochloride]            7.40
2  COc1cc(OC)c(C(Cn2ccnc2)Sc2ccc(C(=O)O)cc2)c(OC)c1 (stereo not drawn) [Compound 84, hydrochloride]            7.48
3  O=C(O)c1ccc(SC(Cn2ccnc2)c2ccccc2Cl)cc1 (stereo not drawn) [Compound 49, hydrochloride]            7.09
4  Cc1ccccc1C(Cn1ccnc1)Sc1ccc(C(=O)O)cc1 (stereo not drawn) [Compound 58, hydrochloride]            7.17
5  COc1ccccc1C(Cn1ccnc1)Sc1ccc(C(=O)O)cc1.Cl (stereo not drawn) [Compound 70, hydrochloride]            7.23
6  Cc1cc(C)c(C(Cn2ccnc2)Sc2ccc(C(=O)O)cc2)c(C)c1 (stereo not drawn) [Compound 62, hydrochloride]            7.16
7  COc1cccc(OC)c1C(Cn1ccnc1)Sc1ccc(C(=O)O)cc1 (stereo not drawn) [Compound 79, hydrochloride]            7.24
8  O=C(O)c1ccc(SC(Cn2ccnc2)c2ccccc2)cc1 (stereo not drawn) [Compound 40]            7.15
9  O=C(O)c1ccc(SC(Cn2ccnc2)c2ccc(Cl)cc2Cl)cc1 (stereo not drawn) [Compound 44, hydrochloride]            7.33
